- targetOrSystem: human GLP-1 receptor (human, UniProt P43220 24-463)
- experimentSummary: cell-based or functional assay
Assign Met to entries whose cAMP EC50 meets or exceeds 100 pM; assign Not met to the rest.

Input: Decide: is the reported value of cAMP EC50 for IP147 (Fc fusion) YSEGTFTSDYSKLLEEEAVRLFIEWLVKGPAPPGGSGSTASSGSGSATGGGGAATHTCPPCPAPEF equal to or greater than 100 pM?
Output: Not met

Input: Decide: is the reported value of cAMP EC50 for IP410 (Fc fusion) YSEGTFTSLYRIHKEEEAVRLFIEKLLAGGGSGGGGSGGGGSGGGGSGGGGSGGGGSGGGGSGGGGSACPPC equal to or greater than 100 pM?
Output: Met

Input: Decide: is the reported value of cAMP EC50 for IP300 (Fc fusion) YSEGTFTSDYSKLLEEEAVRLFIEWLLAGAPPGGGGGGGGGGGGGGGGGGGGGACPPC equal to or greater than 100 pM?
Output: Met

Input: Decide: is the reported value of cAMP EC50 for IP212 (Fc fusion) YSEGTFTSDYSKLLEEEAVREFIAWLVKGPAAAGGSGSTASSGSGSATGGGGAATHTCPPCPAPEF equal to or greater than 100 pM?
Output: Not met

Input: Decide: is the reported value of cAMP EC50 for IP322 (Fc fusion) YSEGTFTSDYSKLLEEEAVRLFIEWLVKGPGGGGGSGGGGSGGGGSGGGGSGGGGSA equal to or greater than 100 pM?
Output: Met

Input: Decide: is the reported value of cAMP EC50 for IP243 (Fc fusion) YSEGTFTSDYSKLLEEEAQRLFIEWLVKGPAAAGGSGSTASSGSGSATGGGGAATHTCPPCPAPEF equal to or greater than 100 pM?
Output: Met

Input: Decide: is the reported value of cAMP EC50 for IP281 (Fc fusion) YSEGTFTSDYSKLLEEEAVRLFIEWLVKGPGGGGGSGGGGSGGGGSGGGGSACPPC equal to or greater than 100 pM?
Output: Not met

Input: Decide: is the reported value of cAMP EC50 for IP222 (Fc fusion) YSEGTFTSDYSKLLEEEAVRLFIEWLKNGGPSSGAPPPSAAAGGSGSTASSGSGSATGGGGAATHTCPPCPAPEF equal to or greater than 100 pM?
Output: Met

Input: Decide: is the reported value of cAMP EC50 for IP268 (Fc fusion) YSEGTFTSDYSKLLEEEAVRLFIEWLVKGPGGGGGSGGGGSGGGGSGGGGSATHTCPPC equal to or greater than 100 pM?
Output: Met

Input: Decide: is the reported value of cAMP EC50 for IP297 (Fc fusion) YSEGTFTSDYSKLLEEEAVRLFIEWLLAGGGGGGGGGGGGGGGGGGGGGGGGGACPPC equal to or greater than 100 pM?
Output: Met
